The measurements presented in this section are drawn from PubChem BioAssay (NCI).

Test Summary: NCI Yeast Anticancer Drug Screen. Data for the bub3 strain (AID 167)
Experimental Setup: S. cerevisiae bub3 mutant strain, active compounds read high; at 50.0 µM unless noted
Compounds without any hit were thinned out: in the full panel of roughly 79,000, 15% have a hit.
Endpoint Label: growth inhibition (%)
Numeric answer only, unit % assumed.

If you can, please state the reported growth inhibition value of c1ccc2[nH]c(CSc3nc4ccccc4s3)nc2c1 .
-0.75

What about CN1C(=O)N(c2cc(Cl)cc(Cl)c2)C(=N)C1=S ?
32.5

What about CCCCCCCC[n+]1ccc(C#N)cc1 ?
5.65

What about O=[N+]([O-])c1cccc(C2=NN(c3ccccc3)C3c4cc(Br)ccc4OCC23)c1 (stereo not drawn) ?
10.2

What about C=CCCCC1CCCNC1=S (stereo not drawn) ?
28.9

What about c1ccc(CC2=NCCO2)cc1 ?
3.85

What about NC(CCn1cnc2c(=O)[nH]cnc21)C(=O)O (stereo not drawn) ?
-12.8

What about O=C1CN(Cc2cccc(Cl)c2)CC(=O)N2Cc3ccccc3CN12 ?
8.9

What about CC(CCC#CC(=O)O)OC1CCCCO1 (stereo not drawn) ?
-15.1

What about N#C/C(=C\C1CCCCC1Cl)C1CCC([N+](=O)[O-])CC1 (stereo not drawn) ?
32.8

What about O=C(O)c1cccc(C(=O)O)c1-c1c(C(=O)O)cccc1C(=O)O ?
7.45

What about C=C(C)[C@H]1CC(=O)[C@@]2(C)C[C@H]3O[C@]3(C)CC/C=C(\C)CC[C@H]12 ?
31.1

What about CCOC(=O)C(CCCCNC(=O)CC)NC(=O)CC (stereo not drawn) ?
11.2

What about O=C(O)/C=C\C(=O)NNC(=O)/C=C\C(=O)O ?
5.45

What about N#CC1C(=O)C(=O)N(c2ccccc2)C1=O (stereo not drawn) ?
-1.85

What about CCOc1c(N=Nc2cccc(Cl)c2)c(C)nn1C(N)=S ?
-15.5

What about c1ccc(C2c3ccccc3CN2c2ccccc2)cc1 (stereo not drawn) ?
23.1

What about COC(=O)C(=O)C1(c2ccccc2)C(=O)C(c2ccccc2)=CC1O (stereo not drawn) ?
8.4

What about CC1/C(=N\O)CC2C3(C)CCC2(C(C)C(=O)O)C(=O)C13 (stereo not drawn) ?
8.9

What about O=C1CCC2OC3CCC(=O)N3CN12 (stereo not drawn) ?
4.95

What about CCOP(=O)(OCC)C(C)(CC)N/C(=N/C(NC(C)=O)(C(F)(F)F)C(F)(F)F)NC1=NC(C(F)(F)F)(C(F)(F)F)N=C(C(F)(F)F)O1 (stereo not drawn) ?
-3.1

What about S=C(c1ccccc1)c1cccc2ccccc12 ?
-3.55

What about CCCCCCCCCCCCOC(=O)NC1c2ccccc2Oc2ccccc21 ?
19.6

What about COC(=O)C(Cc1ccccc1)C(=O)C(CC(=O)OC(C)(C)C)NC(=O)OC(C)(C)C (stereo not drawn) ?
22.1

What about CCCCCCCCCCCC(=O)NCc1ccc(OC(=O)CCCCCCCCCCC)c(OC)c1 ?
4.1

What about C=C(Br)CNC(=O)CCC(=O)NCC(=C)Br ?
-21.4

What about CC(C)(C)OC(=O)CC(NC(=O)OC(C)(C)C)C(=O)NC(C(=O)O)C(O)c1ccccc1 (stereo not drawn) ?
-9.45

What about O=C(c1ccccc1)C(Oc1ccccc1)c1ccccc1 (stereo not drawn) ?
6.9

What about O=C1/C(=C/c2ccc(Cl)cc2)CCC1CN1CCOCC1 (stereo not drawn) ?
91.1

What about CC1([N+](=O)[O-])COC(Cc2ccccc2)OC1 (stereo not drawn) ?
-18

What about O=[N+]([O-])c1ncccc1O ?
12

What about c1nc2nc(N3CCOCC3)nc(N3CCOCC3)c2[nH]1 ?
-17.9

What about Cc1nc2c3c(ccc2[nH]c1=O)C(=O)c1ccccc1C3=O ?
13.9

What about COc1ccc(C2=Nc3ccccc3N=C(SC)C2)cc1 ?
53.7

What about Cc1nc2[nH]c(=O)[nH]c(=O)c2s1 ?
-10.8

What about CN(C)c1ccc(C(c2ccc(N(C)C)cc2)c2ccc([N+](=O)[O-])cc2)cc1 ?
39

What about O=[N+]([O-])c1cccc(Br)c1 ?
3.45

What about CCOC(=O)c1ccc(NC(=O)Nc2cc(Cl)ccc2C)cc1 ?
36.2

What about Cc1cc(Cl)ccc1N=C1NC(=O)C(CC(=O)Nc2ccc([N+](=O)[O-])cc2[N+](=O)[O-])S1 (stereo not drawn) ?
13

What about CCCCCCCCCCCCCCCOc1ccc(OCCCCCCCCCCCC)cc1 ?
4.25

What about CC(O)C1(O)CCCCC1 (stereo not drawn) ?
-13.2

What about CC1(C)C2=CC3(C)N(CN2c2ccccc21)c1ccccc1C3(C)C (stereo not drawn) ?
12.9

What about CCOC(=O)C12CCCC1(O)N(NC(N)=O)C(C)=C2C(=O)OC (stereo not drawn) ?
-11.9

What about N#CC(c1ccccc1)c1ccc2ccccc2n1 (stereo not drawn) ?
33.5

What about Oc1ccccc1/C=N\N=C\NN/C=N/N=C/c1ccccc1O ?
6.4

What about Cc1ccc(C(=O)C[n+]2ccc3ccccc3c2)c(O)c1 ?
-14.3

What about CC/C=N\N1C(N)=C(C#N)C(C#N)(C#N)C1CC (stereo not drawn) ?
-12.8

What about Nc1ccc(N)c2c(O)c3ccccc3c(O)c12 ?
1.8
